Target: T1, human TPBG-hFc protein (human, UniProt Q13641 32-355)
T1 construct: range 32-355; Expressed in HEK293 cells, purified on protein A; also called immunogen A; hFc tagged TPBG protein; not shown: human IgG Fc fragment of the pCpC vector
T1 sequence (looked up): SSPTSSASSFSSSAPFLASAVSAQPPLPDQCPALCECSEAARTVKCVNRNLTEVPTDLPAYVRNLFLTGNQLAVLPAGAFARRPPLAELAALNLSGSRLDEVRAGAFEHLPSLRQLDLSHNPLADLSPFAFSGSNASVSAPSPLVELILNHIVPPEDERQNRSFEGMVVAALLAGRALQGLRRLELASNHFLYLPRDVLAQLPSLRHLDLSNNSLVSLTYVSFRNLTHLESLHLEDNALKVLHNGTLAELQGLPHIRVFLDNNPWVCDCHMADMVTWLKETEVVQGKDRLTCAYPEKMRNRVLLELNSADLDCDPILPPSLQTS
Assay: ELISA, coated human TPBG-hFc
QUANTITY_MEASURED: EC50 (nM)
Quick note: give the figure in nM, leave out the unit.

These solved cases illustrate the format of a correct answer.
[
  {
    "BINDER": "Humanized antibody 28D4-6 (antibody, V domains shown, also called h28D4-6) VH: EVQLVESGGGLVKPGGSLRLSCAASGFTFSNYVMSWIRQAPGKGLEWVSEISTGGSHTYYSDTVTGRFTISRDNAKNSLYLQMNSLRAEDTAVYYCIMFYYGSSYSMDYWGQGTTVTVSS VL: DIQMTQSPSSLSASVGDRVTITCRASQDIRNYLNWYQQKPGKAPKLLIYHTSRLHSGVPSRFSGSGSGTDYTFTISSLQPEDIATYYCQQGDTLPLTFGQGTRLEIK",
    "ENDPOINT_VALUE": 0.205
  },
  {
    "BINDER": "Humanized antibody 12B12-7 (antibody, V domains shown, also called h12B12-7) VH: EVQLVESGGGVVQPGRSLRLSCAASGFTFSNFGMHWVRQAPGKGLEWVAYISSGSTSFYYADTVKGRFTISRDNSKNTLYLQMNSLRAEDTAVYYCARTNSLLRGFFDAWGQGTTVTVSS VL: DIVLTQSPDSLAVSLGERATINCRASQSVSSSSYTYLHWYQQKPGQPPKLLIKSASNLESGVPDRFSGSGSGTDFTLTISSLQAEDVAVYYCQHSWEIPLTFGQGTKLEIK",
    "ENDPOINT_VALUE": 0.367
  },
  {
    "BINDER": "Humanized antibody 28D4-10 (antibody, V domains shown, also called h28D4-10) VH: EVQLVESGGGLVKPGGSLRLSCAASGFTFSNYVMSWIRQAPGKGLEWVSEISTGGSHTYYSDTVTGRFTISRDNAKNSLYLQMNSLRAEDTAVYYCIMFYYGSSYSMDYWGQGTTVTVSS VL: DIQMTQSPSSLSASVGDRVTITCRASQDIRNYLNWYQQKPGKTVKLLIYHTSRLHSGVPSRFSGSGSGTDYTFTISSLQPEDIATYFCQQGDTLPLTFGQGTRLEIK",
    "ENDPOINT_VALUE": 0.224
  },
  {
    "BINDER": "Chimeric antibody 28D4 (antibody, V domains shown, Mouse variable domains on human IgG1 heavy and human kappa light constant regions; also called c28D4; TPBG chimeric antibody 28D4) VH: DVQLVESGGGLVRPGGSLKLSCAASGFTFSNYVMSWARQSPEKRLEWVAEISTGGSHTYYSDTVTGRFTISRDNAKKALYLEMSSLRSEDTAIYYCIMFYYGSSYSMDYWGQGTSVTVSS VL: DIQMTQSTSSLSASLGDRITISCRASQDIRNYLNWYQQKPDGTVKLLIYHTSRLHSGVPSRFSGSGSGTDYSLTISNLEQEDIATYFCQQGDTLPLTFGAGTRLELK",
    "ENDPOINT_VALUE": 0.165
  }
]

Next item in the queue.
Prompt: Quick one: EC50 of Humanized antibody 28D4-8 (antibody, V domains shown, also called h28D4-8) VH: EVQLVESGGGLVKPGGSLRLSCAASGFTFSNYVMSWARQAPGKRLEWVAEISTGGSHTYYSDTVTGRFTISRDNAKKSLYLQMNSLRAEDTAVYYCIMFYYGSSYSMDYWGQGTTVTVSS VL: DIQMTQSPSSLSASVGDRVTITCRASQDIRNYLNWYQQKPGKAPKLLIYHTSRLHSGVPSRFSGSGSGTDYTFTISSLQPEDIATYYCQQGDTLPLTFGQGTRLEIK ?
Completion: 0.162
